target: T1, human CD103 (integrin Alpha-E) / human integrin Beta-7 heterodimer on cells (human, UniProt P38570 19-1179; P26010 20-798); experiment: flow cytometry competition on CD103+CD8+ T cells; pre-incubation with unlabeled 07A; table n=2
T1 construct: the assay field tells which cells; also called hCD103/hBeta7; CHO.K1-hCD103/hBeta7
T1 sequence (P38570 19-1179 limits assumed, chain 1 of 2): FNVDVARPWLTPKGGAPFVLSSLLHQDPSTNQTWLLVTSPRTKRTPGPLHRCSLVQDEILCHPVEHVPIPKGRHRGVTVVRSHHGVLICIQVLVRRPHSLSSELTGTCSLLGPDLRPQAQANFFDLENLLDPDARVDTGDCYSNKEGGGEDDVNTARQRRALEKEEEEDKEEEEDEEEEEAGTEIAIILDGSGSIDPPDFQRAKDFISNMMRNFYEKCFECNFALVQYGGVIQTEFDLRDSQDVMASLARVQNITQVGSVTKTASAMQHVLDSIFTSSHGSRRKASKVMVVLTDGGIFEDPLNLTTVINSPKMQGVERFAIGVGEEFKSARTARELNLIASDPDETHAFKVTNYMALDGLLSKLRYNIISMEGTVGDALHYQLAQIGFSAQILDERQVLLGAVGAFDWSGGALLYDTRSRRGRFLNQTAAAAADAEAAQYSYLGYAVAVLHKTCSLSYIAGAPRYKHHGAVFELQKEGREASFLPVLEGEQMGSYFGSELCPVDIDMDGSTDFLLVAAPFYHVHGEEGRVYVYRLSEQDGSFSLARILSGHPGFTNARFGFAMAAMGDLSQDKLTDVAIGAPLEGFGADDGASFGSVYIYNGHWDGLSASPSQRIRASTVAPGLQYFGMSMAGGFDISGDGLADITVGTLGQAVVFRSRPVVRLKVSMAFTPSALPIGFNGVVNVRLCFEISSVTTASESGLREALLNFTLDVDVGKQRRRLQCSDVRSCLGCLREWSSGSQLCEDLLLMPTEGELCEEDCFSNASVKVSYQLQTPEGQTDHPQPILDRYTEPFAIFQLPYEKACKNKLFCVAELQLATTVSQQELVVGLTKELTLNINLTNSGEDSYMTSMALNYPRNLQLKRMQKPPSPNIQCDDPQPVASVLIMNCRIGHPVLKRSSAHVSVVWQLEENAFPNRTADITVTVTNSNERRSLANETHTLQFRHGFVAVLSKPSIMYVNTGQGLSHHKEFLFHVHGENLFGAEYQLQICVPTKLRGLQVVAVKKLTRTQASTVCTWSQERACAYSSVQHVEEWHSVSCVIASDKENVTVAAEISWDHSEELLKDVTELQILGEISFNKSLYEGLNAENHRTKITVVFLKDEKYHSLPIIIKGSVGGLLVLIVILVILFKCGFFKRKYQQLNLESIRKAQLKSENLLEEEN
T1 sequence (P26010 20-798 limits assumed, chain 2 of 2): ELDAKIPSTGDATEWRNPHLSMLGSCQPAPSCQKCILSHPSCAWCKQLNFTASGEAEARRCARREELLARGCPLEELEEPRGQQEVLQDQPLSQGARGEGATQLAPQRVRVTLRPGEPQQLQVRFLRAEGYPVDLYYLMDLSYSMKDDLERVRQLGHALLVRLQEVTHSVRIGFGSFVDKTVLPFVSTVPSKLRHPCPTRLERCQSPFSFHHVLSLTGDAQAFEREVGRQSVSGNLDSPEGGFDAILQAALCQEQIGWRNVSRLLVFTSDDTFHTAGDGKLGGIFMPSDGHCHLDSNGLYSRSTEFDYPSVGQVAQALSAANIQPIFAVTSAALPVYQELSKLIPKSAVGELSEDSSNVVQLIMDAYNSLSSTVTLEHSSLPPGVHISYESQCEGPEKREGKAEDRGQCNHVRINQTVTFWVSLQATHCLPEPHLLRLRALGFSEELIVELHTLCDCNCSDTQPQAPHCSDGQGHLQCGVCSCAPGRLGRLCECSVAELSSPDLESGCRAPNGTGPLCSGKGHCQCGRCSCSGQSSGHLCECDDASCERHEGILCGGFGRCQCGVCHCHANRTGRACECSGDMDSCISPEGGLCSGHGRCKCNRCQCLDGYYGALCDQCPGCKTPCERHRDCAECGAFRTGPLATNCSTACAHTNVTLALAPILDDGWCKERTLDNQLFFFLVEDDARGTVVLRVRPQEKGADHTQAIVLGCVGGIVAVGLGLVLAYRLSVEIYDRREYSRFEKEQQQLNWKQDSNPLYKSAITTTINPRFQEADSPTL
# % binding of the fluorescently labeled mAb (IgG pre-incubation = 100) annotations
Your answer should be a plain number; it is taken to be in %.

hCD103.07A (antibody, mouse IgG1, V domains shown, also called clone 07A) VH: EVQLQESGPSLVKPSQTLSLTCSVTGDSITSGYWNWIRKFPGNKLEYMGYITYSGSTYYNPSLKSRISITRDTSKNQYYLQLNSVTTEDTATYYCARNYYGSSSMDYWGQGTSVTVSS VL: DIVMTQSQKFMSTSVADRVSVTCKASQNVGSDVAWYQQKPGQSPKSLIYSASYRYSGVPDRFTGSGSGTDFTLTISNVQSEDLAEYFCQQYNSYPSTFGGGTKLEIK : 29.8
hCD103.06A (antibody, mouse IgG1, V domains shown, also called clone 06A; hCD103.06 mAb) VH: QVQLQQPGSELVRPGASVKLSCKASGYTFTSYWMHWVKQRHGQGLEWIGNIYPGSGSTNYDEKFKSKGTLTVDTSSSTAYMHLSSLTSEDSAVYYCTRGVYDNPYYFDYWGQGTTLTVSS VL: DIQMTQSSSNLSVSLGGRVTITCKASDHINNWLAWYQQKPGNAPRVLISGATSLETGVPSRFSGSGSGKDYTLSITSLQTEDVATYYCQQYWSIPLTFGAGTKLELK : 97

The binder hCD103.05A (antibody, mouse IgG1, V domains shown, Also tested labelled with AF647, conjugated with Df and labelled with 89Zr; these are written under this molecule; also called clone 05A; hCD103.05 mAb) VH: EVQLQQSGPELEKPGASAKISCKASGYSFTGYNMNWVKQSNGKSLEWIGNIDPYYGGTSYNQKFKGKATLTVDKSSSTAYMQLKSLTSEDSAVYYCARSFYGYDAGSPYNYAMDYWGQGTPVTVSP VL: DIVMTQSHKFMSTSVGDRVSITCKASQDVGTFVAWYQQKPGQSPKLLIYWASTRHTGVPDRFTGSGSGTDFTLTISNVQSEDLADYFCHQYSSYPYTFGGGTQLEIK showed % binding of the fluorescently labeled mAb (IgG pre-incubation = 100) equal to 56.9

Where do these numbers come from? They come from patent US20230183354A1.
